target: UniProt:P25774
assay_text: Cathepsin enzyme inhibition assay (fluorogenic peptide substrate Z-Val-Val-Arg-AMC), Cathepsin S
Type: biochemical, human and mouse
study_conditions: enzyme 1 nM, substrate 20 μM, pH 6.5; read-out: CatS IC50
Counter-ions that a name gives are not always drawn.
Under this convention, Y denotes IC50 strictly below 0.6 nM and N denotes IC50 at or above 0.6 nM.

>>> class_assignment("N#CC1(NC(=O)[C@@H]2C[C@@H](S(=O)(=O)c3ccc(OCC(F)(F)F)cc3Cl)CN2C(=O)c2ccccc2C(F)(F)F)CC1")
"Y"
>>> class_assignment("N#CCNC(=O)[C@@H]1C[C@@H](S(=O)(=O)c2ccccc2C(F)(F)F)CN1c1ccccc1[N+](=O)[O-]")
"N"
>>> class_assignment("CC(C)(C)OC(=O)N1C[C@H](S(=O)(=O)c2ccc(Cl)cc2OCC(F)(F)F)C[C@H]1C(=O)NC1(C#N)CC1")
"N"
>>> class_assignment("COCCOc1ccc(S(=O)(=O)[C@@H]2C[C@@H](C(=O)NC3(C#N)CC3)N(c3cc(C)nn3C3CCC3)C2)c(Cl)c1")
"Y"
>>> class_assignment("CC(C)(C)OC(=O)N1C[C@H](S(=O)(=O)c2ccc(N3CCC(C(F)(F)F)CC3)cc2Cl)C[C@H]1C(=O)NC1(C#N)CC1")
"N"
>>> class_assignment("N#CC1(NC(=O)[C@@H]2C[C@@H](S(=O)(=O)c3ccccc3Cl)CN2C(=O)C2(c3ccc(Cl)c(Cl)c3)CC2)CC1")
"Y"
>>> class_assignment("N#CC1(NC(=O)[C@@H]2C[C@@H](S(=O)(=O)c3ccc(OCC(F)(F)F)cc3Cl)CN2C(=O)C2(c3ccccc3)CCCCC2)CC1")
"Y"
>>> class_assignment("CC(=O)N1C[C@H](S(=O)(=O)c2ccc(-n3cccn3)cc2Cl)C[C@H]1C(=O)NC1(C#N)CC1")
"N"
>>> class_assignment("CC(Oc1ccc(S(=O)(=O)[C@@H]2C[C@@H](C(=O)NC3(C#N)CC3)N(C(=O)C3(C(F)(F)F)CC3)C2)c(Cl)c1)C(F)(F)F (stereo partly shown)")
"N"
>>> class_assignment("N#CC1(NC(=O)C2CC(S(=O)(=O)c3ccccc3C(F)(F)F)CN2c2cccc(OC(F)(F)F)c2)CC1 (stereo not shown)")
"N"
>>> class_assignment("N#CC1(NC(=O)C2CC(S(=O)(=O)c3ccccc3C(F)(F)F)CN2C2CCOCC2)CC1 (stereo not shown)")
"N"
>>> class_assignment("CN1CCN(c2ccc(S(=O)(=O)[C@H]3CN[C@H](C(=O)NC4(C#N)CC4)C3)c(C(F)(F)F)c2)CC1 [Example 21, hydrochloride]")
"N"

* * *

target: Cat L (UniProt P07711)
assay_text: Cathepsin enzyme inhibition assay (fluorogenic peptide substrate Z-Val-Val-Arg-AMC), Cathepsin L
Format: biochemical, human and mouse
study_conditions: enzyme 1 nM, substrate 20 μM, pH 6.5; read-out: CatL IC50
pIC50: −log10 of the molar value.
property_name: pIC50

>>> measured_value("Cc1cc(-c2ccc(S(=O)(=O)[C@@H]3C[C@@H](C(=O)NC4(C#N)CC4)N(C(=O)C4(C)CC4)C3)c(C(F)(F)F)c2)ccn1 [Example 257]")
4.32
>>> measured_value("N#CC1(NC(=O)[C@@H]2C[C@@H](S(=O)(=O)c3ccc(C4CC4)cc3C(F)(F)F)CN2C(=O)C2(C(F)(F)F)CC2)CC1 [Example 256]")
4.34
>>> measured_value("Cn1cc(-c2ccc(C3(C(=O)N4C[C@H](S(=O)(=O)c5ccc(OCC(F)(F)F)cc5Cl)C[C@H]4C(=O)NC4(C#N)CC4)CC3)cc2)cn1 [Example 288]")
5.46
>>> measured_value("Cc1cc(Cl)ccc1S(=O)(=O)[C@@H]1C[C@@H](C(=O)NC2(C#N)CC2)N(C(=O)OC(C)(C)C)C1 [Example 40]")
4.38
>>> measured_value("N#CC1(NC(=O)[C@@H]2C[C@@H](S(=O)(=O)c3ccc(OCC(F)(F)F)cc3Cl)CN2C(=O)C2(c3cccc4ccccc34)CC2)CC1 [Example 347]")
7.22
>>> measured_value("CN1C[C@H](S(=O)(=O)c2ccccc2Cl)C[C@H]1C(=O)N(C)C1(C#N)CC1 [Example 94]")
4.40
>>> measured_value("COc1ccc(S(=O)(=O)[C@@H]2C[C@@H](C(=O)NC3(C#N)CC3)N(c3cc(C)nn3C3CCC3)C2)c(Cl)c1 [Example 375]")
5.27
>>> measured_value("CCN1CCN(c2ccc(S(=O)(=O)[C@H]3CN[C@H](C(=O)NC4(C#N)CC4)C3)c(Cl)c2)CC1 [Example 140]")
4.61
>>> measured_value("CC(=O)Nc1cccc(-n2nc(C)cc2N2C[C@H](S(=O)(=O)c3ccccc3C(F)(F)F)C[C@H]2C(=O)NC2(C#N)CC2)c1 [Example 356]")
4.50
>>> measured_value("CCN1CCN(c2ccc(S(=O)(=O)[C@@H]3C[C@@H](C(=O)NC4(C#N)CC4)N(C(=O)OC(C)(C)C)C3)c(Cl)c2)CC1 [Example 138]")
4.54
>>> measured_value("N#CC1(NC(=O)[C@@H]2C[C@@H](S(=O)(=O)c3ccccc3Cl)CN2C(=O)c2ccc(F)cc2)CC1 [Example 76]")
5.06
>>> measured_value("N#CC1(NC(=O)[C@@H]2C[C@@H](S(=O)(=O)c3ccccc3Cl)CN2CCc2ccccc2)CC1 [Example 87]")
5.33
>>> measured_value("N#CC1(NC(=O)[C@@H]2C[C@@H](S(=O)(=O)c3ccc(N4CCC(F)(F)C4)cc3Cl)CN2)CC1 [Example 136]")
4.90
>>> measured_value("N#CC1(NC(=O)[C@@H]2C[C@@H](S(=O)(=O)c3ccccc3Cl)CN2C(=O)[C@H](N)c2ccc(Cl)cc2)CC1 [Example 417]")
7.26
>>> measured_value("N#CC1(NC(=O)[C@@H]2C[C@@H](S(=O)(=O)c3ccc(OCC(F)(F)F)cc3Cl)CN2C(=O)C(F)(F)c2ccccc2)CC1 [Example 251]")
5.90
>>> measured_value("CC(Oc1ccc(S(=O)(=O)[C@@H]2C[C@@H](C(=O)NC3(C#N)CC3)N(C(=O)C3(C(F)(F)F)CC3)C2)c(Cl)c1)C(F)(F)F (stereo partly drawn) [Example 149]")
5.09
>>> measured_value("Cn1nc(C(C)(C)C)cc1C(=O)N1C[C@H](S(=O)(=O)c2ccc(OCC(F)(F)F)cc2Cl)C[C@H]1C(=O)NC1(C#N)CC1 [Example 386]")
5.40

* * *

# maps each entry to its IC50
target: UniProt P07711
assay_text: Cathepsin enzyme inhibition assay (fluorogenic peptide substrate Z-Val-Val-Arg-AMC), Cathepsin L
Type: biochemical, human and mouse
study_conditions: enzyme 1 nM, substrate 20 μM, pH 6.5; read-out: CatL IC50
property_name: IC50 (µM)

>>> measured_value("Cc1cc(N2C[C@H](S(=O)(=O)c3ccccc3)C[C@H]2C(=O)NC2(C#N)CC2)n(-c2ccnc(Cl)c2)n1")
28.7
>>> measured_value("N#CC1(NC(=O)[C@@H]2C[C@@H](S(=O)(=O)c3ccccc3)CN2C(=O)C2(c3ccc(Cl)cc3)CC2)CC1")
0.53
>>> measured_value("CCN1CCN(c2ccc(S(=O)(=O)[C@@H]3C[C@@H](C(=O)NC4(C#N)CC4)N(C(=O)C4(C(F)(F)F)CC4)C3)c(Cl)c2)CC1 [Example 142]")
2.48
>>> measured_value("Cc1cc(N2C[C@H](S(=O)(=O)c3ccc(OCC(F)(F)F)cc3Cl)C[C@H]2C(=O)NC2(C#N)CC2)n(C2CCC2)n1")
5.36

* * *

# maps each entry to its IC50
target: UniProt:P07711
assay_text: Cathepsin enzyme inhibition assay (fluorogenic peptide substrate Z-Val-Val-Arg-AMC), Cathepsin L
Format: biochemical, human and mouse
study_conditions: enzyme 1 nM, substrate 20 μM, pH 6.5; read-out: CatL IC50
Procedure: Cathepsin Enzyme Inhibition Assay Enzyme activity is measured by observing the increase in fluorescence intensity caused by cleavage of a peptide substrate containing a fluorophore whose emission is quenched in the intact peptide. […] Enzyme is added to the substance dilutions in 96-well microtitre plates and the reaction is started with substrate. Fluorescence emission is measured over 20 minutes, during which time a linear increase is observed in the absence of inhibitor. […]
property_name: IC50

>>> measured_value("N#CCNC(=O)[C@@H]1C[C@@H](S(=O)(=O)c2ccccc2Cl)CN1C(=O)c1ccccc1")
"27.4 µM"
>>> measured_value("N#CC1(NC(=O)[C@@H]2C[C@@H](S(=O)(=O)c3ccccc3C(F)(F)F)CN2c2cc(C3CCOCC3)nn2C2CCC2)CC1")
"7.2 µM"
>>> measured_value("COc1ccc(N2C[C@H](S(=O)(=O)c3ccccc3C(F)(F)F)C[C@H]2C(=O)NC2(C#N)CC2)cc1")
"≥ 25 µM"
>>> measured_value("CC(C)(C)OC(=O)N1C[C@H](S(=O)(=O)c2ccc(Br)cc2C(F)(F)F)C[C@H]1C(=O)NC1(C#N)CC1")
"≥ 25 µM"
>>> measured_value("N#CC1(NC(=O)[C@@H]2C[C@@H](S(=O)(=O)c3ccccc3Cl)CN2CC(F)F)CC1")
"≥ 25 µM"
>>> measured_value("CC(C)(C)OC(=O)N1C[C@H](S(=O)(=O)c2ccc(OC3COC3)cc2Cl)C[C@H]1C(=O)NC1(C#N)CC1")
"41.5 µM"
>>> measured_value("Cc1cc(N2C[C@H](S(=O)(=O)c3ccccc3C(F)(F)F)C[C@H]2C(=O)NC2(C#N)CC2)n(-c2cc[nH]c(=O)c2)n1")
"41.4 µM"
>>> measured_value("CC(C)(C)OC(=O)N1C[C@H](S(=O)(=O)c2c(Cl)cccc2Cl)C[C@H]1C(=O)NC1(C#N)CC1")
"9.77 µM"
